Tested on: CCRF-CEM
Experiment: NCI tumour cell line growth inhibition, 48 h
The source made the active and inactive calls. Cut-off read from the data, not from the text of the source: active = GI50 up to about 1.1 µM and inactive = higher.
measuredProperty: GI50

# annotated cases, reported GI50 shown
compound	targetEntity	GI50
O=c1oc2ccccc2c(Nc2ccc3c(c2)Oc2ccccc2O3)c1[N+](=O)[O-]	CCRF-CEM	40.3 µM (inactive)
CC1=C2C(c3ccccc3)(c3ccccc3)C3C=CC2(C=N3)N(C(=O)NC2CCCCC2)C1=O (centres undefined)	CCRF-CEM	16.5 µM (inactive)
CCCCCCc1cc2cc(C(=O)Nc3cccc(F)c3)c(=N)oc2cc1O	CCRF-CEM	1.63 µM (inactive)

// switching to the query compound
Query: So what GI50 did "CN1CC(=O)N(C)c2[nH]cnc2C1=O" get with CCRF-CEM?
Response: > 100 µM (inactive)

----------
Test system: SK-MEL-28
Test: NCI tumour cell line growth inhibition, 48 h
Calls of active or inactive are those of the source. No stated cut-off is given here; in the data, active = GI50 up to about 1.1 µM and inactive = higher.
measuredProperty: GI50

# annotated cases, reported GI50 shown
compound	targetEntity	GI50
c1ccc(CCN2CCc3[nH]c4ccccc4c3C2)cc1	SK-MEL-28	20 µM (inactive)
O=C(O)c1ccc(C2COc3ccc(Cl)cc3C2)cc1 (stereo not given)	SK-MEL-28	> 100 µM (inactive)
C[C@]12[C@@H]3CC[C@H]1[C@@H](OC(=O)Nc1cc([N+](=O)[O-])cc([N+](=O)[O-])c1)C(=O)N2CC3	SK-MEL-28	> 100 µM (inactive)

Count: 4. Required value per item: GI50.
1. O=C1C=CC(=O)C2C1Cc1ccccc1C2c1ccccc1 (stereo not given)
2. O=C(N/C(=C\NC1=NCCS1)C(=O)N1CSC[C@@H]1C(=O)O)c1ccccc1
3. CC1=N/C(=C\c2ccc(N)cc2)C(=O)N1Nc1nnc(NN2C(=O)/C(=C/c3ccc(N)cc3)N=C2C)c2ccccc12
4. COc1cc(/C=C/C(=O)Oc2ccccc2)ccc1C(=O)O/C=C/c1ccccc1

Response:
1: 97.1 µM (inactive); 2: > 100 µM (inactive); 3: > 100 µM (inactive); 4: > 100 µM (inactive)

----------
System: SK-MEL-28
Assay: NCI tumour cell line growth inhibition, 48 h
Calls of active or inactive are those of the source. Rule as the data show it: active = GI50 up to about 1.1 µM and inactive = higher.
Respond only with the outcome that fits, drawn from Yes for active, No for inactive

compound	categoryLabel
N=C(N)SCc1cn2ccccc2n1	No
COc1cc(C=O)cc(/C=N/n2c3ccccc3c3ccccc32)c1O	No

Query: Tell me the recorded outcome of this test for "COc1cc(/C=C2\N=C(c3ccccc3)N(c3nc4cc(C)c(C)cc4s3)C2=O)ccc1O" .
Response: No

Query: Tell me the recorded outcome of this test for COc1cc2c(cc1OC)C(C(=O)O)C(c1ccccc1)N(C)C2=O (stereo not drawn) .
Response: No

Query: Tell me the recorded outcome of this test for "C/C(=N/NC(=S)NCCc1ccccn1)c1cnccn1" .
Response: No

Query: Tell me the recorded outcome of this test for CCOc1ccccc1N1C(=O)C(=O)C(c2nc3ccccc3o2)/C(=N\N)C1=O (stereo not drawn) .
Response: No

Query: Tell me the recorded outcome of this test for COc1ccc(NC(C)=O)cc1N1C(=O)/C(=C\c2cc(OC)c(OC)c(OC)c2)SC1c1ccccc1 (stereo not drawn) .
Response: No

Query: Tell me the recorded outcome of this test for COc1ccccc1/C=C1\CCC(Cc2ccccc2)(CN(C)C)C1=O (stereo not drawn) .
Response: No

Query: Tell me the recorded outcome of this test for "CCCCCCCCCCCCCCCC(=O)OCCOCCOCCOCc1ccccc1" .
Response: No

Query: Tell me the recorded outcome of this test for CC(=O)OC1CCC2(C)C(CCC3C2CC(=O)C2(C)C3CC(N3CC3)C2C(C)=O)C1 (stereo not drawn) .
Response: No

----------
I'd appreciate it if you could supply GI50 values for the items below.
Tested on: CCRF-CEM
Experiment: NCI tumour cell line growth inhibition, 48 h
Activity calls are given as the source filed them. Cut-off read from the data, not from the text of the source: active = GI50 up to about 1.1 µM and inactive = higher.

compound	measuredProperty	reading
Cn1c(=O)c2c(nc(NCCNc3nc4c(c(=O)n(C)c(=O)n4C)n3C)n2C)n(C)c1=O	GI50	> 100 µM (inactive)
CC1(C=O)C(=O)CCC2(C)C3CC(=O)OC3CCC12 (stereo not given)	GI50	> 100 µM (inactive)
CC(=O)OCc1cncn1S(=O)(=O)c1ccc(C)cc1	GI50	30.4 µM (inactive)
CCOC(=O)/C(C(=O)Nc1cccc(Cl)c1)=C(/N)N1CCOCC1	GI50	> 100 µM (inactive)

Count: 7. Required value per item: GI50.
1. O=S(=O)(O)c1cccc2cccc(/N=N/c3c(O)ccc4ccccc34)c12
2. Cc1cc(C)nc(NS(=O)(=O)c2ccc(NC(=O)c3cccc4c(N)c5ccccc5nc34)cc2)n1
3. Cc1c(/C=N/NC(=O)c2ccc(Cl)cc2)c(=O)n(-c2ccccc2)n1C
4. CC(C)=CC1C(C(=O)OCc2cc3c(cc2Cl)OCO3)C1(C)C (stereo not given)
5. CCN(C(=O)N[C@@H](Cc1ccccc1)C(=O)N[C@@H](CC(C)C)C(=O)NC)c1ccccc1
6. CC(=O)O[C@]1(C)OC(=O)[C@@H](C)N1[N+](=O)[O-]
7. C[C@]12CC[C@H]3[C@@H](CC=C4C[C@@H](O)CC[C@@]43C)[C@@H]1C/C(=C\c1ccncc1)[C@@H]2O

Response:
["> 100 µM (inactive)", "26.2 µM (inactive)", "> 100 µM (inactive)", "32.6 µM (inactive)", "> 100 µM (inactive)", "72.8 µM (inactive)", "19.5 µM (inactive)"]

----------
GI50, HCT-15, per-entry values.

# annotated cases, reported GI50 shown
compound	targetEntity	GI50
COc1cc2cc(C(=O)N3CC(COS(C)(=O)=O)c4c3cc([N+](=O)[O-])c3ccccc43)[nH]c2c(OC)c1OC (stereo unspecified)	HCT-15	> 31.6 µM
O=C(/C=C/c1ccc(O)c(O)c1)c1ccc(O)cc1O [BUTEIN]	HCT-15	16.3 µM
N=c1c2ccccc2nc2oc3ccccc3n12	HCT-15	> 100 µM
ON=C1CCC(c2ccccc2)CC1 (stereo unspecified)	HCT-15	> 100 µM

Count: 2. Required value per item: GI50.
1. Nn1c(CCCCCCCCc2nnc(COc3ccccc3)n2N)nnc1COc1ccccc1
2. CC(C)Sc1nncc(/C(N)=N/O)n1

Response:
1. > 100 µM
2. > 100 µM

----------
System: K562
Experiment: NCI tumour cell line growth inhibition, 48 h
The source made the active and inactive calls. Rule as the data show it: active = GI50 up to about 1.1 µM and inactive = higher.
measuredProperty: GI50

# annotated cases, reported GI50 shown
compound	GI50
CC(C)C(=O)Nc1nc2[nH]cnc2c(=O)[nH]1	> 100 µM (inactive)
CC1(C)CN(c2ccccc2)C(=O)C1OC(=O)[C@@]1(C)C[C@@H]2C=C[C@H]1C2 (stereo partly drawn)	6.15 µM (inactive)

// switching to the query compound
Query: Please give the measured GI50 for this compound: "N#CCN1CCN(CC#N)CCN(CC#N)CCN(CC#N)CC1"
Response: > 100 µM (inactive)

----------
Test system: OVCAR-8
Test: NCI tumour cell line growth inhibition, 48 h
Calls of active or inactive are those of the source. Rule as the data show it: active = GI50 up to about 1.1 µM and inactive = higher.
Respond only with the outcome that fits, drawn from true = active, false = inactive

See these solved cases before continuing.
compound	targetEntity	categoryLabel
CC(=O)Oc1ccc2c(c1)Oc1cc(C(C)=O)ccc1C21OC(=O)c2ccccc21 (stereo not drawn)	OVCAR-8	false
O=C1c2cccc3cc([N+](=O)[O-])cc(c23)C(=O)N1NC1=NCCN1	OVCAR-8	false

Query: Tell me the recorded outcome of this test for "CC(=O)CC(=O)CCCC(=O)Nc1ccc(Cl)cc1Cl" .
Response: false

Query: Tell me the recorded outcome of this test for "COC(=O)c1ccc(NC(=O)c2cc3c(cc2Br)OCO3)o1" .
Response: false

Query: Tell me the recorded outcome of this test for "CN(/N=C/C=N/N(C)C1=NCCCN1)C1=NCCCN1" .
Response: false

Query: Tell me the recorded outcome of this test for "CCOC(=O)N1C(=S)C(C(=O)OC)(C(=O)OC)N=C1C" .
Response: false

Query: Tell me the recorded outcome of this test for "Cc1ccc2c(c1C)-c1c(ccc(C)c1C)C(=O)C2=O" .
Response: true

Query: Tell me the recorded outcome of this test for "O=C(Nc1ccc(Cl)cc1)NS(=O)(=O)c1ccc2c(c1)CCC2" .
Response: false

Query: Tell me the recorded outcome of this test for "CCOc1ccc(N/C(Cl)=C(Cl)\C(=C(\Nc2ccc(OCC)cc2)n2nnc3ccccc32)[N+](=O)[O-])cc1" .
Response: false

Query: Tell me the recorded outcome of this test for CCOC1(COP(=O)(OCc2ccccc2)OCc2ccccc2)COC(COP(=O)(OCc2ccccc2)OCc2ccccc2)(OCC)CO1 (stereo not drawn) .
Response: false

Query: Tell me the recorded outcome of this test for "C/C(Nc1ccc(Cl)cc1)=C1/CCOC1=O" .
Response: false

Query: Tell me the recorded outcome of this test for "CC1(C)CCC2=C(O1)/C(=N\Nc1ccc(F)cc1)c1ccccc1C2=O" .
Response: false

Query: Tell me the recorded outcome of this test for "O=C(Nc1ccc(Nc2ccc(NC(=O)c3ccccc3)c3c2C(=O)c2ccccc2C3=O)c2c1C(=O)c1ccccc1C2=O)c1ccccc1" .
Response: false

Query: Tell me the recorded outcome of this test for "COc1ccc(CSCc2cc(OC)c(OC)c(OC)c2)cc1" .
Response: false

Query: Tell me the recorded outcome of this test for "CN(C)c1ccc(/C=C(\NC(=O)c2ccccc2)c2nn(C)c(=O)o2)cc1" .
Response: false
